molecular target: GLP-1 receptor (UniProt P43220 24-463, limits assumed); experiment: cell-based or functional assay
*1 amine or outer side, *2 acyl side, *3 side chain or, on linkers, in order; H or OH if unused. Where no end group is shown, it is not given here. Side-chain parts run from the residue outwards. [ ]: non-standard residue; d: D form. The star is where a group is joined. Isobutyryl(2-imidazol-4-yl) = CC(C)(C(=O)*)c1c[nH]cn1; γGlu = O=C(O)[C@H](CCC(=O)[*:2])N[*:1]; Palmitoyl = CCCCCCCCCCCCCCCC(=O)*; Aib = CC(C)(N)C(=O)O
Exercise: for every item that follows, state its recorded EC50 (cAMP reporter).
One number for each entry, in pM.

binder="H[dS]QGTFTSDKSKYLDERRA[Aib]EFVQWLLDT-NH2 (not fully specified (residue 10)) [Analog No. 36: dSer2, K10acyl, E16, Aib20, E21, L27, D28 (SEQ ID NO: 30)]" parameter_measured="EC50 (cAMP reporter)" assay_value=3.1
binder="[Isobutyryl(2-imidazol-4-yl)][dS]QGTFTSDKSKYLDERAAQDFVQWLLDT-NH2 (not fully specified (residue 10)) [Analog No. 44: DMIA1, dSer2, K10acyl, E16, A18, L27, D28 (SEQ ID NO: 32)]" parameter_measured="EC50 (cAMP reporter)" assay_value=3
binder="H[Aib]QGTFTSDKSKYLD[Aib]RAAQDFVQWLMDGGPSSGAPPPS-NH2 (not fully specified (residue 10)) [Analog No. 49: Aib2, K10acyl, Aib16, A10, D28, G29 + CEX (SEQ ID NO: 33)]" parameter_measured="EC50 (cAMP reporter)" assay_value=4
binder="H[Aib]EGTFTSDKSKYLDERRA[Aib]EFVQWLLDT-NH2 (not fully specified (residue 10)) [Analog No. 64: Aib2, E3, K10acyl, E16, Aib20, E21, L27, D28 (SEQ ID NO: 40)]" parameter_measured="EC50 (cAMP reporter)" assay_value=6
binder="H[Aib]QGTFTSDKSKYLD[Aib]RAAQDFVQWLKDGGPSSGAPPPS-NH2 (not fully specified (residue 10)) [Analog No. 54: Aib2, K10acyl, Aib16, A18, K27, D28, G29 + CEX (SEQ ID NO: 36)]" parameter_measured="EC50 (cAMP reporter)" assay_value=4
binder="H[Aib]EGTFTSDK(Palmitoyl)SKYLDERRA[Aib]DFVQWLLDGGPSSGAPPPS-NH2 [Analog No. 65: Aib2, E3, K10acyl, E16, Aib20, L27, D28, G29 + CEX (SEQ ID NO: 41)]" parameter_measured="EC50 (cAMP reporter)" assay_value=6
binder="H[Aib]QGTFTSDKSKYLDERAAQDFVQWLLDGRG-NH2 (not fully specified (residue 10)) [Analog No. 34: Aib2, K10acyl, E16, A18, L27, D28, GRG29-31 (SEQ ID NO: 29)]" parameter_measured="EC50 (cAMP reporter)" assay_value=3
binder="H[Aib]QGTFTSDK(Palmitoyl)SKYLD[Aib]RAAQDFVQWLVKGGPSSGAPPPS-NH2 [Analog No. 53: Aib2, K10acyl, Aib16, A18, V27, K28, G29 + CEX (SEQ ID NO: 35)]" parameter_measured="EC50 (cAMP reporter)" assay_value=5
binder="H[Aib]EGTFTSDK([γGlu-C16])SKYLDERRA[Aib]EFVQWLLDGGPSSGAPPPS-NH2 [Analog No. 62: Aib2, E3, K10acyl, E16, Aib20, E21, L27, D28, G29 + CEX (SEQ ID NO: 38)]" parameter_measured="EC50 (cAMP reporter)" assay_value=8
binder="H[dS]QGTFTSDKSKYLDERAAQDFVQWLLDGGPSSGAPPPS-NH2 (not fully specified (residue 10)) [Analog No. 29: dSer2, K10acyl, E16, A18, L27, D28, G29 + CEX (SEQ ID NO: 27)]" parameter_measured="EC50 (cAMP reporter)" assay_value=2

Let's switch to this binder now.
Give the value of EC50 (cAMP reporter) reported for the following: H[Aib]QGTFTSDK([γGlu-Palmitoyl])SKYLDERAAQDFVQWLLDGGPSSGAPPPS-NH2 [Analog No. 30: Aib2, K10acyl, E16, A18, L27, D28, G29 + CEX (SEQ ID NO: 28)]
2

Source of measurements: patent US20120238493A1
